- EXPERIMENTAL PROTOCOL: In vitro potency against adenylate cyclase in bovine retina
- Format: tissue-based
Label rule, in plain words: pD2 of 6 and up is 1, under 6 is 0.

Below are worked cases with known answers.
CN1CCc2cccc3c2[C@H]1Cc1ccc(O)c(O)c1-3 [APOMORPHINE]: 1
Oc1cc2c(cc1O)C(c1ccccc1)CNCC2 (stereo unspecified) [SKF-38393]: 1

Consider the record given below.
Task item: Check this compound for pD2 at or above 6: "CN1CCC[C@@H]2c3cccc4[nH]cc(c34)C[C@H]21"
Reply: 0

###

- EXPERIMENTAL PROTOCOL: In vitro potency against adenylate cyclase in bovine retina
- Format: tissue-based
PROPERTY: pD2
Write no unit; give the number alone.

Recorded results for 2 compounds are shown here.
Oc1ccc([C@@H]2CNCc3ccccc32)cc1O: 6
CN1CCC[C@@H]2Cc3c(O)cccc3C[C@H]21: 6.15

Consider now this further compound.
Task item: Request the reported pD2 associated with CN1Cc2ccccc2[C@@H]2c3cccc4[nH]cc(c34)C[C@H]21 (racemic)
Reply: 6.1

Taken from ChEMBL document CHEMBL1126644.
